Origin of measurements: PubChem BioAssay (NCI)

Test system: UACC-62 melanoma
assay details: NCI-60 one-dose screen, 48 h (100 = growth as untreated, 0 = no growth, -100 = all killed)
condition label: 10 µM unless noted
This is part of a sample that, as a whole, favours compounds with a hit. Of some 83,000 tested, about 20% had one in any assay.
Reported growth maps to class as: interval 1 = under 10%, interval 2 = from 10% up to 80%, interval 3 = 80% and over

Reference set, count: 8
compound=O=C(CSc1nnc(-c2ccc(-c3nc4ccccc4[nH]3)cc2)o1)Nc1ccc(Cl)cc1 class_assignment="interval 2"
compound=CC(C)CN1C(=O)/C(=C\C(=O)c2cc3ccccc3oc2=O)c2ccccc21 class_assignment="interval 3"
compound=Clc1ccc(Nc2nnc(-c3c[nH]c4ccccc34)o2)cc1 class_assignment="interval 2"
compound=CC(=O)c1ccc2c(N)c(C(=O)Nc3ccc(C(F)(F)F)cc3)sc2n1 class_assignment="interval 2"
compound=O=C(COc1ccc(/C=C2/C(=O)Nc3ccc(Cl)cc32)cc1)Nc1ccc(Br)cc1 class_assignment="interval 1"
compound=COc1cc(/C=N/NC(=O)c2ccc(OCc3nc4ccc(Cl)cc4[nH]3)cc2)cc(OC)c1OC class_assignment="interval 2"
compound=Clc1ccc(-c2nc3c4c(-c5ccccc5)c(-c5ccccc5)n(Cc5ccccc5)c4ncn3n2)cc1 class_assignment="interval 2"
compound="CC(C)(C)C(=O)C1CC(C#N)=C2C=Cc3c(ccc4ccccc34)N21 (stereo not drawn)" class_assignment="interval 3"

Enquiry: Which growth band matches COc1ccc2[nH]cc(-c3cc4nc(-c5cn(C)c6ncc(Br)cc56)cc(N)n4n3)c2c1 ?
Return: interval 1

Enquiry: Which growth band matches CC[C@]12C=CCN3CC[C@]4(C(=C(C(=O)OC)C1)Nc1cc(OC)c([C@@H]5[C@H]6O[C@H]6[C@@]6(CC)CC(C(=O)OC)=C7Nc8cc(O)ccc8[C@@]78CCN5[C@@H]68)cc14)[C@@H]32 ?
Return: interval 1

Enquiry: Which growth band matches Cc1oc(-c2ccccc2)nc1CN[C@@H]1C[C@@H]2C[C@H]([C@H]1C)C2(C)C ?
Return: interval 1

----------
Tested on: SNB-19 CNS
assay details: NCI-60 one-dose screen, 48 h (100 = growth as untreated, 0 = no growth, -100 = all killed)
condition label: 1 µM
The panel holds about 83,000 compounds, 20% with a hit somewhere; the sample as a whole holds those more often.
readout type: growth (%)
Answers are plain numbers, in %.

// known answers, use as guide
line_notation=CC/C(=C(/c1ccc(O)cc1)c1ccc(OCCN(C)C(=O)COCCOCCNC(=O)Cc2ccc3c(c2)CN([C@@H]2CCC(=O)NC2=O)C3=O)cc1)c1ccccc1 readout_type=growth number=79.5
line_notation=CC/C(=C(/c1ccc(O)cc1)c1ccc(OCCN(C)C(=O)COCCOCCNC(=O)c2ccc3c(c2)CN([C@@H]2CCC(=O)NC2=O)C3=O)cc1)c1ccccc1 readout_type=growth number=85.5
line_notation=CC/C(=C(\c1ccc(O)cc1)c1ccc(OCCN(C)C(=O)CCOCCNC(=O)c2ccc3c(c2)CN([C@@H]2CCC(=O)NC2=O)C3=O)cc1)c1ccccc1 readout_type=growth number=92.7
line_notation=CC/C(=C(/c1ccc(O)cc1)c1ccc(OCCN(C)C(=O)CCOCCNC(=O)Cc2ccc3c(c2)CN([C@@H]2CCC(=O)NC2=O)C3=O)cc1)c1ccccc1 readout_type=growth number=75.9

Report growth for every entry below.
1. CC/C(=C(\c1ccc(O)cc1)c1ccc(OCCN(C)C(=O)COCCNC(=O)Cc2ccc3c(c2)CN([C@@H]2CCC(=O)NC2=O)C3=O)cc1)c1ccccc1
2. CC/C(=C(\c1ccc(O)cc1)c1ccc(OCCNC)cc1)c1ccccc1

Return:
64.8
94.6

----------
Tested on: UO-31 renal
assay details: NCI-60 one-dose screen, 48 h
condition label: 10 µM unless noted
The panel holds about 83,000 compounds, 20% with a hit somewhere; the sample as a whole holds those more often. The source made the active and inactive calls. The calls were made as follows: active = growth percent below 10; inactive = the rest.
In this exercise, the only acceptable responses are Y = active, N = inactive

Reference set, count: 2
compound=CC(=O)C[n+]1cccc2c3ccccc3ccc21 class_assignment=N
compound="COc1ccc(NC(=O)NN2C(=O)c3ccccc3N(C)C2c2ccc(OC)cc2)cc1 (stereo unspecified)" class_assignment=N

Enquiry: Fill in: this test's call for CCN1C(=O)N(CC)C2NNC(Sc3c(C(=O)O)c4ccccc4n(CC(C)C)c3=O)=NC21 (stereo unspecified) is ___
Return: N

Enquiry: Fill in: this test's call for Fc1ccc(N2CC(Cn3c(C(F)(F)F)cc4c(Cl)ncnc43)C2)c(F)c1 is ___
Return: Y

Enquiry: Fill in: this test's call for Cc1cc(Cl)ccc1NC(=O)Nc1ccc(-c2ccc3c(c2)NC(=O)/C3=C\c2ccc[nH]2)cc1 is ___
Return: N

Enquiry: Fill in: this test's call for CN(C)c1ccc(/C=C/c2n(Cc3ccc4ccccc4c3)c3ccccc3[n+]2Cc2ccc3ccccc3c2)cc1 is ___
Return: Y

Enquiry: Fill in: this test's call for CCOC(=O)/C(F)=C/C1CC1C1CCN(C(=O)OC(C)(C)C)CC1 (stereo unspecified) is ___
Return: N

Enquiry: Fill in: this test's call for CCCSc1nnc(-c2c(C)nc3sccn23)o1 is ___
Return: N

Enquiry: Fill in: this test's call for COC(=O)c1cc(C(C)=O)n2c3ccccc3c3ccccc3c12 is ___
Return: N

Enquiry: Fill in: this test's call for Clc1ccc2c(NCCNC34CC5CC(CC(C5)C3)C4)ccnc2c1 is ___
Return: Y

Enquiry: Fill in: this test's call for C=CCn1c(O)c(N=Nc2nc(-c3cc4ccccc4oc3=O)cs2)c2ccccc21 is ___
Return: N

Enquiry: Fill in: this test's call for COc1ccc2[nH]c(O)c(N=Nc3nc(-c4ccc(Cl)cc4)cs3)c2c1 is ___
Return: Y

Enquiry: Fill in: this test's call for O=C(N/N=C/c1occc1Br)c1[nH]c2ccc(Br)cc2c1-c1ccccc1 is ___
Return: Y

Enquiry: Fill in: this test's call for Cn1cc(Nc2ncnc(-c3ccc(N4CCCC4)c(C#N)c3)n2)cn1 is ___
Return: N

Enquiry: Fill in: this test's call for COc1ccc2c(c1)N=c1c-2cc2c(O)[nH]c(=S)n2c1=O is ___
Return: N

Enquiry: Fill in: this test's call for Cc1ccc(Cl)cc1NC(=O)N/C(N)=N/c1nc2ccccc2s1 is ___
Return: Y

----------
System: HOP-62 NSCLC
assay details: NCI-60 one-dose screen, 48 h (100 = growth as untreated, 0 = no growth, -100 = all killed)
condition label: 10 µM unless noted
This is part of a sample that, as a whole, favours compounds with a hit. Of some 83,000 tested, about 20% had one in any assay. Activity calls are given as the source filed them. Rule for the calls: active = growth percent below 10; inactive = the rest.
readout type: growth

// known answers, use as guide
line_notation=O=C(N/N=C/c1ccsc1)c1[nH]c2ccc(Br)cc2c1-c1ccccc1 result="-64.7% (active)"
line_notation=CC(C)(C)OC(=O)N1CCC2(CC1)Oc1ccccc1[C@H]1CC(c3ccc(Br)cc3)=NN12 result="77% (inactive)"
line_notation=COc1ccc(-n2c(NC(=O)N3CCN(C)CC3)c(C#N)c3ccccc32)cc1 result="30.5% (inactive)"

Per the records, this compound ( O=C(Cc1c(-c2cccc([N+](=O)[O-])c2)n(-c2ncnc3c2c(-c2ccccc2)c(-c2ccccc2)n3Cc2ccccc2)[nH]c1=O)c1ccc(Cl)c(Cl)c1 ) has growth equal to 44.9% (inactive)

----------
Test system: A498 renal
assay details: NCI-60 one-dose screen, 48 h (100 = growth as untreated, 0 = no growth, -100 = all killed)
condition label: 10 µM unless noted
About 83,000 compounds went through this panel and 20% of them were active in at least one assay; those are over-represented in the sample as a whole.
readout type: growth (%)
Numbers only, in %.

Report growth for every entry below.
1. CC1=C(C(=O)OCc2ccccc2)C(c2ccc(N(C)C)cc2)n2c(nc3ccccc32)N1 (stereo not given)
2. CC(C)(C)OC(=O)N1C/C(=C\c2ccc(F)cc2)C(=O)/C(=C/c2ccc(F)cc2)C1
3. CC(=O)c1c2c(c3ccc4c5ccccc5ccc4n13)C(=O)c1ccccc1C2=O
4. O=C(CSc1nc2ccccc2c(=O)[nH]1)NNC(=O)c1ccccc1Cl
5. S=C(Nc1ccc(OCc2nc3ccc(Cl)cc3[nH]2)cc1)NC1CCCCC1
6. O=C(CSc1nc2sc3c(c2c(=O)n1-c1ccc(Cl)cc1)CCCC3)NNC(=O)c1ccc(Br)cc1
7. CC1=C(C(=O)Nc2ccccc2)C(c2cccc3ccccc23)n2c(nc3ccccc32)N1 (stereo not given)

Return:
[74.5, 97, 189, 100, -1.77, 127, 102]

Report growth for every entry below.
1. COc1c(B(O)O)cccc1-c1nc2ccc3cn[nH]c3c2c2c1CCCC2
2. CC1=C(C(=O)Nc2ccccc2)C(c2cccc(Cl)c2Cl)n2c(nc3ccccc32)N1 (stereo not given)
3. COc1cc(/C=C/C(=O)c2cnn(-c3cc(=O)[nH]c4ccccc34)c2C)cc(OC)c1OC
4. O=C(CSc1nnc(-c2ccc(-c3nc4ccccc4[nH]3)cc2)o1)Nc1ccc(Cl)cc1
5. COc1cc(CNC(=O)C[C@H](C)CCC=C(C)C)ccc1OCc1cn(-c2ccc(Br)cc2)nn1

Return:
1: -2.36; 2: 35; 3: 96.1; 4: 132; 5: 105

Report growth for every entry below.
1. CC1=C(C(=O)OCc2ccccc2)C(c2cccc3ccccc23)n2c(nc3ccccc32)N1 (stereo not given)
2. c1n[nH]cc1-c1nc2ccc3cn[nH]c3c2c2c1CCCC2

Return:
1: 62.6; 2: 93.8
